- System: HCT-116 (colon)
- TEST: Antiproliferative activity (growth inhibition), HCT-116 cells
- Format: cell-based
- RUN_CONDITIONS: Homo sapiens, HCT-116, read-out: IC50 HCT-116 (colon)
Recorded pIC50 for the following compounds
Reminder that pIC50 means the negative base-10 logarithm of the concentration expressed in mol/L.

>>> df
                            molecule_smiles  data_value
0  C/C1=C/C[C@@H](/C(C)=C/c2csc(C)n2)OC(=O)C[C@H](O)C(C)(C)C(=O)[C@H](C)[C@@H](O)[C@@H](C)CCC1        8.35

Shifting focus to the compound that follows.
Look up pIC50 of `C/C(=C\c1csc(C)n1)[C@@H]1C[C@@H]2O[C@]2(C)CCC[C@H](C)[C@H](O)[C@@H](C)C(=O)C(C)(C)[C@@H](O)CC(=O)O1` and report it.
9.47
